Assay: solubility in methanol
Assay type: physicochemical
Settings: organic solvent or mixture, 25° C.
property: solubility

// recorded solubility for O=c1c(-c2ccc(O)cc2)coc2cc(O[C@@H]3O[C@H](CO)[C@@H](O)[C@H](O)[C@H]3O)cc(O)c12 : ~5000 µg/mL

###

Experiment: solubility in water (stepwise addition of water, visual inspection)
Assay type: physicochemical
Details: 25 °C, thermodynamic from solid
property: solubility at 5 min

// recorded solubility at 5 min for O=c1c(-c2ccc(O)cc2)coc2cc(O[C@@H]3O[C@H](CO)[C@@H](O)[C@H](O)[C@H]3O)cc(O)c12 : ~1000 µg/mL

Data credit: patent US6541062B2
